target: factor Xa, human (Homo sapiens, UniProt P00742)
Sequence (P00742 235-488 limits assumed): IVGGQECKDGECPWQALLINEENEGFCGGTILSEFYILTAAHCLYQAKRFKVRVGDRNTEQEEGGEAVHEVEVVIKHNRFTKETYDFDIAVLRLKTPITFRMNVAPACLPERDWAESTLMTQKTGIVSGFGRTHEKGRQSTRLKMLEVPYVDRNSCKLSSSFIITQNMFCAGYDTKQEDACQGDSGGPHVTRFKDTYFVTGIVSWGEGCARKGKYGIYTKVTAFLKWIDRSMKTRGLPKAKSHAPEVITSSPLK
Sequence (P00742 41-179 limits assumed): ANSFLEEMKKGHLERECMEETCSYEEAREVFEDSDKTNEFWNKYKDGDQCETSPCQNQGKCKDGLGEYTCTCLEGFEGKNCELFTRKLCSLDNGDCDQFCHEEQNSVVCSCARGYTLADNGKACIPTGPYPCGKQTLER
MEASURED PARAMETER: IC50 (µM)
Please state the figure in µM; there is no need to write the unit.

CCCN(Cc1cccc(C(=N)N)c1)C(=O)Oc1ccc(-c2ccccc2S(N)(=O)=O)cc1 ... 0.45

Pending compound:
Exam item: Given the compound CCCN(Cc1cccc(C(=N)N)c1)C(=O)Oc1ccc(-c2ccccc2S(C)(=O)=O)cc1 , write its reported IC50.
Marked response: 0.34
